Estrogenic effect listing for selected compounds.
- TARGET: Estrogen receptor (Mus musculus) (UniProt O08537+P19785)
- Sequence (O08537 whole entry, looked up): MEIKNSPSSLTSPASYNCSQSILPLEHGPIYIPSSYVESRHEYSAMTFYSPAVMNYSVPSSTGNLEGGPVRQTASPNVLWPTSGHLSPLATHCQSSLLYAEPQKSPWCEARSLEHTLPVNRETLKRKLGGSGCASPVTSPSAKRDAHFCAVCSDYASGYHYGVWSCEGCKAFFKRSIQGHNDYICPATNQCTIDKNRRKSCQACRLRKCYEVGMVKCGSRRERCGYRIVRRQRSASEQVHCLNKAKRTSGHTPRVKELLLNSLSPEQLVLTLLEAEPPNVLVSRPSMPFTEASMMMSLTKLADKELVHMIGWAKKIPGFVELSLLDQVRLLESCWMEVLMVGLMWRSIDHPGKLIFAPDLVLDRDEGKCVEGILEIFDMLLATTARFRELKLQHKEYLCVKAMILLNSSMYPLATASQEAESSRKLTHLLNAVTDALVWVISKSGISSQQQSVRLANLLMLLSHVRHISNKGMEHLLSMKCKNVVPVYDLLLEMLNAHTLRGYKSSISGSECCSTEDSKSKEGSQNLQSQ
- Sequence (P19785 whole entry, looked up): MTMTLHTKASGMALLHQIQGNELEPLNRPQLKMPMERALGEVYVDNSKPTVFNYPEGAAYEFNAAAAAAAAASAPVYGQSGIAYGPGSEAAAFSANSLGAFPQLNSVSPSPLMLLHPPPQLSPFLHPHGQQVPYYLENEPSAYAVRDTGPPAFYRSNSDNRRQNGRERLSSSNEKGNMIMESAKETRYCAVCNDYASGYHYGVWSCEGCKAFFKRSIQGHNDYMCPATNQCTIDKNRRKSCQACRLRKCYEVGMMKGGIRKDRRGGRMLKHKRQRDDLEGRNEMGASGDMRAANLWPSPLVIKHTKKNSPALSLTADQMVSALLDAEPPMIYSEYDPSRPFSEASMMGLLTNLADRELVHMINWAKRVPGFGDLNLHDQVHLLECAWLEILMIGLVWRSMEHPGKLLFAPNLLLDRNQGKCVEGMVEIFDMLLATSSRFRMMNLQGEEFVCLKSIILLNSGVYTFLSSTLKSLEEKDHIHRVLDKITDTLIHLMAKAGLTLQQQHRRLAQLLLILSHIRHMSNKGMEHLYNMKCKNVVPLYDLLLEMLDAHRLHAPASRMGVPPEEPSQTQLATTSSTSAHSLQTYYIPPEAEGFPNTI
- EXPERIMENT: Estrogenic effect in uterotrophic assay in mice at 0.1 nM/animal dose
- Format: functional
ENDPOINT_NAME: Estrogenic effect (%)

[
  {
    "COMPOUND": "NC(CCC(N)c1c(Cl)cc(O)cc1Cl)c1c(Cl)cc(O)cc1Cl (racemic)",
    "OBSERVED_RESULT": 0
  },
  {
    "COMPOUND": "CCNC(CCC(NCC)c1c(Cl)cc(O)cc1Cl)c1c(Cl)cc(O)cc1Cl (stereo in doubt)",
    "OBSERVED_RESULT": 61
  },
  {
    "COMPOUND": "CCNC(CCC(NCC)c1c(Cl)cc(O)cc1Cl)c1c(Cl)cc(O)cc1Cl (racemic)",
    "OBSERVED_RESULT": 0
  },
  {
    "COMPOUND": "NC(CCC(N)c1c(Cl)cc(O)cc1Cl)c1c(Cl)cc(O)cc1Cl (stereo in doubt)",
    "OBSERVED_RESULT": 0
  },
  {
    "COMPOUND": "CNC(CCC(NC)c1c(Cl)cc(O)cc1Cl)c1c(Cl)cc(O)cc1Cl (racemic)",
    "OBSERVED_RESULT": 0
  },
  {
    "COMPOUND": "CNC(CCC(NC)c1c(Cl)cc(O)cc1Cl)c1c(Cl)cc(O)cc1Cl (stereo in doubt)",
    "OBSERVED_RESULT": 0
  },
  {
    "COMPOUND": "CCNC(CCC(N)c1c(Cl)cc(O)cc1Cl)c1c(Cl)cc(O)cc1Cl (configuration not stated)",
    "OBSERVED_RESULT": 22
  }
]
